system-under-test: GmPOPB (Galerina marginata)
Construct: His tag (TEV-cleavable) (cleaved yes); made in house; host or cells: E. coli BL21(DE3)
Sequence (H2E7Q8 whole entry): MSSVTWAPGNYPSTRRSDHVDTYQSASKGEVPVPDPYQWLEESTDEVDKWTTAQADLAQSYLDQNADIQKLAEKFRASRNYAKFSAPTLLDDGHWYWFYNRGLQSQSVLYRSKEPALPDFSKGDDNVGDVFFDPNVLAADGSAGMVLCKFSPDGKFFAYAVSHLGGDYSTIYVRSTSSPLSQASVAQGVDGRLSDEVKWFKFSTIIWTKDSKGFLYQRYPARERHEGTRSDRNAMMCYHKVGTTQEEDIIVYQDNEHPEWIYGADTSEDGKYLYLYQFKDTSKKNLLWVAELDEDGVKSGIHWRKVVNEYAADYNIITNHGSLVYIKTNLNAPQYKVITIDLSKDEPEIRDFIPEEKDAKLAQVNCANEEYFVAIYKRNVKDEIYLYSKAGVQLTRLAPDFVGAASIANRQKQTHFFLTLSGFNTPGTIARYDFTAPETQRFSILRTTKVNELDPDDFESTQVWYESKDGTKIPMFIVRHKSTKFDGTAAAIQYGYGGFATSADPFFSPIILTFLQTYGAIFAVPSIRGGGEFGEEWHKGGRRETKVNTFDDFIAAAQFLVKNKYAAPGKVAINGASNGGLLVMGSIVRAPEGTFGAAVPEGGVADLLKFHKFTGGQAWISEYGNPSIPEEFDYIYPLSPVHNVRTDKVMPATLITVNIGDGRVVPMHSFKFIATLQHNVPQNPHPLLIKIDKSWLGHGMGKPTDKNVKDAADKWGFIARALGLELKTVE
protocol-notes: biochemical
applied-conditions: Figure S10, fit to Equation S4; activity normalized to no inhibitor (100%) and 50 µM recognition sequence (0%)
Where no end group is shown, it is not given here.
measure-name: IC50 (nM)
# unit: nM | format: bare number

Query :: Please report the measured IC50 for WTAEHVDQTLASGNDIC [peptide tail]
Result :: 320
